Hi there, I'd appreciate the recorded γ at 0.1 wt %, 20 b/s for every entry that follows.
experiment: Dynamic surface tension of aqueous solutions, maximum bubble pressure method; assay type: physicochemical; details: 0.1 wt % in distilled water, 20 b/s
Answers are plain numbers, in dyne/cm.

INSERT INTO measurements (compound, recorded_result) VALUES
  ('CC(C)COCC(O)CNCCN (racemic)', 59.6),
  ('CCCCOCC(O)CNCCCCCCN(CC(O)COCCCC)CC(O)COCCCC (stereo not shown)', 55.4),
  ('CCCCOCC(O)CNC1CCC(CC2CCC(N)CC2)CC1 (mixture of isomers)', 55.2),
  ('CCCCC(CC)COCC(O)CN(CCN(CC(O)COCC(CC)CCCC)CC(O)COCC(CC)CCCC)CC(O)COCC(CC)CCCC (stereo not shown)', 71.7),
  ('CCCCOCC(O)CN(CC(O)COCCCC)C1CCC(CC2CCC(N(CC(O)COCCCC)CC(O)COCCCC)CC2)CC1 (stereo not shown)', 72.4),
  ('CCCCOCC(O)CN(CCCC(C)CN(CC(O)COCCCC)CC(O)COCCCC)CC(O)COCCCC (stereo not shown)', 67.7);

Items follow; give γ at 0.1 wt %, 20 b/s for each.
1. CCCCOCC(O)CNCCN(CC(O)COCCCC)CC(O)COCCCC (stereo not shown)
2. CCCCC(CC)COCC(O)CNCCN (mixture of isomers)
3. CCCCOCC(O)CNCCCOCCOCCOCCCN(CC(O)COCCCC)CC(O)COCCCC (stereo not shown)
4. CCCCOCC(O)CNCCCCCCN (racemic)

[51.3, 63.3, 47.6, 52.6]
